- System: SKOV3
- Method: Primary qHTS to identify gynecologic anti-cancer compounds using libraries of approved drugs and bioactive compounds (AID 1345084); also: nearly all actives have a fitted effect of over 55% in size; also: potency is read from the fitted curve at half-maximal effect
- Experimental conditions: Gynecologic cancer cell panel viability, ATPlite luminescence, 48 h; series mostly up to 57.5 µM
- Source text: National Center for Advancing Translational Sciences [NCATS] Assay Overview: Chemotherapeutic drug responses vary from cancer to cancer and from patient to patient. […] ATPlite is a luminescence based assay reliant on the conversion of a luciferase substrate to light in the presence of ATP. As a cytotoxic compound will suppress growth and decrease the number of cells, the concentration of ATP will decrease, and less light signal will be detected in the well. […]
Results filed as inconclusive are left out. Activity calls are given as the source filed them. Calls follow the shape of the dose curve; as a rule, active = well fitted cell-killing curve with a large enough effect; inconclusive = small, poorly fitted or top-dose-only effect, or effect the other way; inactive = flat fitted curve, though single readings scatter.
Metric: Potency

C[C@]12CC[C@H](OC3OC(CO)C(O)C(O)C3OC3OC(CO)C(O)C(O)C3O)C[C@@H]1CC[C@@H]1C2CC[C@]2(C)[C@@H](C3=CC(=O)OC3)CC[C@]12O (stereo partly drawn) : inactive
CO[C@@H]1[C@H](O)[C@@H](O[C@@H]2C[C@H]3CC[C@@H]4C(CC[C@]5(C)[C@@H](C6=CC(=O)OC6)CC[C@]45O)[C@@]3(C)[C@H](O)C2)O[C@H](C)[C@@H]1O (stereo partly drawn) : 251 nM (active)
COC(=O)C1=COC(C)C2CN3CCC4(C(=O)Nc5ccccc54)C3CC12 (stereo not drawn) : inactive
